The reported numbers originate from paper doi:10.1101/2022.04.05.487228v1.

# measuredOn: bovine rod opsin (unliganded, in ROS membranes) (Bos taurus, UniProt P02699)
# Sequence (P02699 whole entry): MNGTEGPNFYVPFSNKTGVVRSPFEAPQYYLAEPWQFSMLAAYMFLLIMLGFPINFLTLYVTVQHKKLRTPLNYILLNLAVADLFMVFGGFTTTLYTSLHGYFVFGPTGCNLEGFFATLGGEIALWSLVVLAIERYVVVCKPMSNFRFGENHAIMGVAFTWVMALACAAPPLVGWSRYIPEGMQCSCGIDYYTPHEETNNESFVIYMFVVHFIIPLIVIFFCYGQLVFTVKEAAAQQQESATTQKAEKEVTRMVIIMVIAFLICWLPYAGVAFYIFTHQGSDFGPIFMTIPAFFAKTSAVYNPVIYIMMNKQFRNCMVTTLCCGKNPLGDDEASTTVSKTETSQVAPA
# methodDescription: intrinsic Trp fluorescence quenching at […] nm
recordedEndpoint: EC50 (nM)

compound: Cc1c(OC(C)C(=O)OCc2ccccc2)ccc2c3c(c(=O)oc12)CCC3 (stereo not shown)
EC50 / nM: 171

(I) Cc1c(OCc2ccc(C(=O)O)cc2)ccc2c3c(c(=O)oc12)CCC3
(II) Cc1ccc(C(=O)Oc2ccc3c4c(c(=O)oc3c2)CCCC4)cc1
INPUT: Hi there! Just curious which has the higher EC50 between I and II . State your choice using its label.
OUTPUT: I
(I: 375 nM, II: 207 nM)
